Assay: Toxicity (DL50) in Swiss mice
Type: in vivo, both male and female
Conditions: mouse, in vivo, po; OS (orally), Swiss mice male and female
Structures can show the parent of a compound that is named as a salt.
Hi there, I'd appreciate the recorded LD50 for every entry that follows.
Answers are plain numbers, in mg/kg.

* CC(O)(P(=O)(O)O)P(=O)(O)O [EHDP, disodium salt] | 2000

With those in mind, consider the next molecule.
Q: Report LD50 for `NCCC(O)(P(=O)([O-])O)P(=O)([O-])O.[Na+].[Na+]` please.
Ans: 625

----------
Experiment: Toxicity (DL50) in rats
Details: rat, in vivo, iv; I.v., rats (footnote *)
Counter-ions that a name gives are not always drawn.
Recorded metric: LD50 (mg/kg)
Numbers only, in mg/kg.

Q: Report LD50 for CC(O)(P(=O)(O)O)P(=O)(O)O [EHDP, disodium salt] please.
Ans: 35
